Target Of Assay: human ether-à-go-go-related gene (hERG) potassium channel (human)
Sequence (Q12809 whole entry, looked up): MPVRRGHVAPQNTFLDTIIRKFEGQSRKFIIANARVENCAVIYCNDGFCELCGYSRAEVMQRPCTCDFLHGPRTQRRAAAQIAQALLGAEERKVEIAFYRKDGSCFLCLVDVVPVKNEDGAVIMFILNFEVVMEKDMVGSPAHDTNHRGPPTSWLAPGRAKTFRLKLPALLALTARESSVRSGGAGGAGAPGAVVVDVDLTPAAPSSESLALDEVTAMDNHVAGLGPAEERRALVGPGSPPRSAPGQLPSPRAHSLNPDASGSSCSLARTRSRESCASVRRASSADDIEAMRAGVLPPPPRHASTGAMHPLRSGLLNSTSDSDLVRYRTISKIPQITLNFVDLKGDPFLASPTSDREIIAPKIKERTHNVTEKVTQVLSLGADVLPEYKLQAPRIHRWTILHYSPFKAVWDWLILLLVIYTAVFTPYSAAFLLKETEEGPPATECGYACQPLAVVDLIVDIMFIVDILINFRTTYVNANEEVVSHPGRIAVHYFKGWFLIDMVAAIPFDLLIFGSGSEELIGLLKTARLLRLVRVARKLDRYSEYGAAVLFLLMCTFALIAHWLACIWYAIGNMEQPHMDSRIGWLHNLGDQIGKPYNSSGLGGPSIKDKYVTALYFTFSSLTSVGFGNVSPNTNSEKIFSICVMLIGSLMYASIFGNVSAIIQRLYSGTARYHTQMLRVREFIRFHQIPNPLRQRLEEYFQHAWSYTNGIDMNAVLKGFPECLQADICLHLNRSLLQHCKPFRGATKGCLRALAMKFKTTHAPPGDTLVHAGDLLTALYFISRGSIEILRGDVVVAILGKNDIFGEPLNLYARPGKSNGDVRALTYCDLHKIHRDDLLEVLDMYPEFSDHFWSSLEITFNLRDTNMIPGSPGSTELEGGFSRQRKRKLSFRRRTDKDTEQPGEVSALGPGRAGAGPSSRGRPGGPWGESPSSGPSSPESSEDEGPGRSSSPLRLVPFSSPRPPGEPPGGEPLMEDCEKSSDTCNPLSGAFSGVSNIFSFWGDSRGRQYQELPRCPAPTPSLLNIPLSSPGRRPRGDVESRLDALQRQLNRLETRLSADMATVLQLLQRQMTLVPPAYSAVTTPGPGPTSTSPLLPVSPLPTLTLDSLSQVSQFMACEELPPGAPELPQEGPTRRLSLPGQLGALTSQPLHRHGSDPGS
Assay Name: primary screen, population patch clamp on CHO cells stably expressing hERG; higher = less effect of the substance
Out of some 310,000 compounds screened, about 2,200 (0.71%) showed an effect of 50% or more. Effects have a minus sign here. The list comes from a sample in which strong results are over-represented; it also holds close analogues and randomly drawn compounds.
Attribute: hERG current change (%, negative = inhibition) at 1uM
Readout Label: hERG current change (%, negative = inhibition) at 1uM (%)

Molecule: COc1ccc(OC)c(/C=N/N(C)c2ccccc2)c1
Unit Abbrev: %
Quantitative Result: 12.4

Molecule: COc1ccc(CN2CCCC(C(=O)c3cccc(Cl)c3)C2)cc1 (stereo not shown)
Unit Abbrev: %
Quantitative Result: -7.39

Molecule: Cc1ccc(S(=O)(=O)N2CCC(=O)N(CCOCc3cccc(F)c3)CC2)cc1
Unit Abbrev: %
Quantitative Result: 7.15

Molecule: CCCCN(C)C(=O)c1nc2ccccn2c1CN1CCN(C/C=C/c2ccccc2)CC1
Unit Abbrev: %
Quantitative Result: -80.8

Molecule: COc1ccc(CNC(=O)CN2CCC(C(=O)c3ccc(OC)cc3)CC2)cc1
Unit Abbrev: %
Quantitative Result: -15.3

Molecule: COc1ccc(CN2CCC(C(=O)c3cccc(Cl)c3)CC2)cc1
Unit Abbrev: %
Quantitative Result: -66.8

Molecule: CCCCN(C)C(=O)c1nc2ccccn2c1CN1CCSCC1
Unit Abbrev: %
Quantitative Result: 12.1

Molecule: Cl.Fc1ccc(C(OCCN2CCCC2)c2ccc(F)cc2)cc1
Unit Abbrev: %
Quantitative Result: -37.9

Molecule: Cl.c1ccc(C(OCCN2CCNCC2)c2ccccc2)cc1
Unit Abbrev: %
Quantitative Result: 4.05

Molecule: CCCCN(C)C(=O)c1nc2ccccn2c1CN1CCN(c2ncccn2)CC1
Unit Abbrev: %
Quantitative Result: 6.17
